Some compounds, each annotated with its measured MIC.
- Test system: Moraxella catarrhalis
- experiment-description: Antibacterial activity against Moraxella catarrhalis ATCC 25238 assessed as growth inhibition after 24 hr by two-fold serial dilution method
- Type: functional
- experimental-setup: ATCC 25238, 24 h

compound	MIC
O=C(O)c1cn(C2CC2)c2cc(N3CCNCC3)c(F)cc2c1=O [CIPROFLOXACIN]	0.25 µg/mL
O=C(O)c1cn(C2CC2)c2cc(-n3cc(CNc4ccccc4)nn3)c(F)cc2c1=O	0.125 µg/mL
O=C(O)c1cn(C2CC2)c2cc(-n3cc(CNc4ccc(Cl)cc4)nn3)c(F)cc2c1=O	0.125 µg/mL
O=C(O)c1cn(C2CC2)c2cc(-n3cc(CNC4CC4)nn3)c(F)cc2c1=O	32 µg/mL
CC(C)NCc1cn(-c2cc3c(cc2F)c(=O)c(C(=O)O)cn3C2CC2)nn1	1 µg/mL
Cc1ccc(NCc2cn(-c3cc4c(cc3F)c(=O)c(C(=O)O)cn4C3CC3)nn2)cc1	0.125 µg/mL
O=C(O)c1cn(C2CC2)c2cc(-n3cc(CNc4ccc(F)cc4)nn3)c(F)cc2c1=O	0.25 µg/mL
O=C(O)c1cn(C2CC2)c2cc(-n3cc(CN4CCCCC4)nn3)c(F)cc2c1=O	1 µg/mL
O=C(O)c1cn(C2CC2)c2cc(-n3cc(CNC4CCCCCC4)nn3)c(F)cc2c1=O	8 µg/mL
O=C(O)c1cn(C2CC2)c2cc(-n3cc(Cn4ccnc4)nn3)c(F)cc2c1=O	8 µg/mL
O=C(O)c1cn(C2CC2)c2cc(-n3cc(CNC4CCCCC4)nn3)c(F)cc2c1=O	1 µg/mL
O=C(O)c1cn(C2CC2)c2cc(-n3cc(CNCc4ccc(F)cc4)nn3)c(F)cc2c1=O	1 µg/mL
CC(=O)NC[C@H]1CN(c2ccc(N3CCOCC3)c(F)c2)C(=O)O1 [LINEZOLID]	4 µg/mL
O=C(O)c1cn(C2CC2)c2cc(-n3cc(CN4CCNCC4)nn3)c(F)cc2c1=O	8 µg/mL
O=C(O)c1cn(C2CC2)c2cc(-n3cc(CNC4CCCC4)nn3)c(F)cc2c1=O	1 µg/mL
CN(C)Cc1cn(-c2cc3c(cc2F)c(=O)c(C(=O)O)cn3C2CC2)nn1	1 µg/mL
O=C(O)c1cn(C2CC2)c2cc(-n3cc(CN4CCCC4)nn3)c(F)cc2c1=O	1 µg/mL
O=C(O)c1cn(C2CC2)c2cc(-n3cc(CN4CCOCC4)nn3)c(F)cc2c1=O	4 µg/mL
O=C(O)c1cn(C2CC2)c2cc(-n3cc(CNCc4ccccc4)nn3)c(F)cc2c1=O	1 µg/mL
